molecular target: T1, endogenous cell surface human MSLN (human, UniProt Q13421 296-598); assay: flow cytometry, NCI-H226 cells
T1 construct: whole, on cells; The cell line is named under assay; also called cell-surface MSLN on NCI-H226, OVCAR-3 and AsPC-1 cells
T1 sequence (Q13421 other isoform, or with tags, fused parts or gaps limits assumed): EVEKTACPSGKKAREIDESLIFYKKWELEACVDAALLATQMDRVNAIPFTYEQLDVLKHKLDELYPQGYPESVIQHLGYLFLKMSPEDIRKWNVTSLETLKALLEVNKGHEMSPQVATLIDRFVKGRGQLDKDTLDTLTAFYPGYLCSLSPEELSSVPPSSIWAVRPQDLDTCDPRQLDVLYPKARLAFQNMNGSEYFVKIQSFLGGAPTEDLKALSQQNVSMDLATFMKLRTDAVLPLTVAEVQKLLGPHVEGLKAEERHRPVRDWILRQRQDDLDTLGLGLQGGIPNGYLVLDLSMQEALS
measured.metric: Emax (MFI)
I'd appreciate it if you included the unit after the number.

Inquiry: Given FS22-172-003-AA/FS28-185 (bispecific antibody, human IgG1, kappa, L234A L235A, V domains shown, IgG1 mAb^2 with LALA; also called FS28-185 in CD137 mAb^2 format) VH: EVQLLESGGGLVQPGGSLRLSCAASGFTFTTSAMSWVRQAPGKGLEWVSRINPYEGETNYADSVKGRFTISRDNSKNTLYLQMNSLRAEDTAVYYCARGWSIATYYKSAMDYWGQGTLVTVSS VL: EIVLTQSPGTLSLSPGERATLSCRASQSVSSSYLAWYQQKPGQAPRLLIYGASSRATGIPDRFSGSGSGTDFTLTISRLEPEDFAVYYCQQSSYSAPVTFGQGTKVEIKR , state its recorded Emax (MFI).
Reply text: 4930 MFI
